target: Beta-secretase 1 (Homo sapiens); test: Inhibition of recombinant human BACE1 (1 to 460 residues) expressed in baculovirus infected insect cells using rhodamine-EVNLDAEFK peptide as substrate measured after 60 mins by FRET assay
In this section, each of the compounds is paired with its reported IC50.
OBSERVABLE: IC50 (µM)

STRUCTURE_SMILES_STRING: O=C(Nc1ccc(F)cc1)c1cccc(-c2cnc(-c3c[nH]c4ccccc34)[nH]2)c1
TARGET_OR_SYSTEM: Beta-secretase 1 (Homo sapiens)
UOM: µM
DATA_VALUE: 0.098
//
STRUCTURE_SMILES_STRING: O=C(Nc1cccc(-c2cnc(-c3c[nH]c4ccccc34)[nH]2)c1)c1cccnc1
TARGET_OR_SYSTEM: Beta-secretase 1 (Homo sapiens)
UOM: µM
DATA_VALUE: 0.22
//
STRUCTURE_SMILES_STRING: O=C(Nc1cccc(-c2cnc(-c3c[nH]c4cc(F)ccc34)[nH]2)c1)c1cccnc1
TARGET_OR_SYSTEM: Beta-secretase 1 (Homo sapiens)
UOM: µM
DATA_VALUE: 0.13
//
STRUCTURE_SMILES_STRING: O=C(Nc1ccccc1)c1cccc(-c2cnc(-c3c[nH]c4ccccc34)[nH]2)c1
TARGET_OR_SYSTEM: Beta-secretase 1 (Homo sapiens)
UOM: µM
DATA_VALUE: 0.11
//
STRUCTURE_SMILES_STRING: Fc1ccc(-c2cnc(-c3cccc(-c4cnc(-c5c[nH]c6cc(OC(F)(F)F)ccc56)[nH]4)c3)[nH]2)cc1
TARGET_OR_SYSTEM: Beta-secretase 1 (Homo sapiens)
UOM: µM
DATA_VALUE: 0.18

----------
In this section, each of the compounds is paired with its reported pEC50.
molecular target: Beta-secretase 1 (Homo sapiens, UniProt P56817); experiment: Inhibition of BACE1 in human H4 cells expressing human APP K595N/M596L double mutant assessed as decrease in amyloid beta 42 and amyloid beta 40 level after overnight incubation by ELISA method
Sequence (P56817 whole entry, the tested form may be a part): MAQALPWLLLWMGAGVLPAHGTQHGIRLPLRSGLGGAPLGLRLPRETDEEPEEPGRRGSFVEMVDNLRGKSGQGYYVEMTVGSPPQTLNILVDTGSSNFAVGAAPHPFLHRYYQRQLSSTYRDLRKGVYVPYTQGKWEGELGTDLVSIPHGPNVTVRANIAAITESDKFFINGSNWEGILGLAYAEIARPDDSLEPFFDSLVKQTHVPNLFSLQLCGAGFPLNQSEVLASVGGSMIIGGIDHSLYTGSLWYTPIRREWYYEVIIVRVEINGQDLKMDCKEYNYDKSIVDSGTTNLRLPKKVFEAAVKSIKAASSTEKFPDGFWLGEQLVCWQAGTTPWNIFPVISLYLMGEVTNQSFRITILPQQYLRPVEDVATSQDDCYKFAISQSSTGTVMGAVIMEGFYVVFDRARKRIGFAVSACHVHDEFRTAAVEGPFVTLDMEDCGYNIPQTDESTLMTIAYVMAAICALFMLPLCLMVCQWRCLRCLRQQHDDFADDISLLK
pEC50: −log10 of the molar value.

STRUCTURE_SMILES_STRING: O=C(Nc1ccccc1)c1cccc(-c2cnc(-c3c[nH]c4ccccc34)[nH]2)c1
pEC50: 5.92
--
STRUCTURE_SMILES_STRING: Fc1ccc(-c2cnc(-c3cccc(-c4cnc(-c5c[nH]c6cc(OC(F)(F)F)ccc56)[nH]4)c3)[nH]2)cc1
pEC50: 6.17
--
STRUCTURE_SMILES_STRING: Fc1ccc2nc(-c3cccc(-c4cnc(-c5c[nH]c6cc(OC(F)(F)F)ccc56)[nH]4)c3)[nH]c2c1
pEC50: 6.54
--
STRUCTURE_SMILES_STRING: O=C(Nc1ccncc1)c1cccc(-c2cnc(-c3c[nH]c4ccccc34)[nH]2)c1
pEC50: 6.23
--
STRUCTURE_SMILES_STRING: Fc1ccc2nc(-c3cccc(-c4cnc(-c5c[nH]c6cc(F)ccc56)[nH]4)c3)[nH]c2c1
pEC50: 6.46
--
STRUCTURE_SMILES_STRING: Fc1ccc(-c2cnc(-c3cccc(-c4cnc(-c5c[nH]c6cc(F)ccc56)[nH]4)c3)[nH]2)cc1
pEC50: 6.09
--
STRUCTURE_SMILES_STRING: O=C(Nc1cccc(-c2cnc(-c3c[nH]c4cc(F)ccc34)[nH]2)c1)c1cccnc1
pEC50: 6.39
--
STRUCTURE_SMILES_STRING: O=C(Nc1cccc(-c2cnc(-c3c[nH]c4ccccc34)[nH]2)c1)c1cccnc1
pEC50: 6.32
--
STRUCTURE_SMILES_STRING: O=C(Nc1cccnc1)c1cccc(-c2cnc(-c3c[nH]c4ccccc34)[nH]2)c1
pEC50: 6.06
--
STRUCTURE_SMILES_STRING: O=C(Nc1ccc(F)cc1)c1cccc(-c2cnc(-c3c[nH]c4ccccc34)[nH]2)c1
pEC50: 5.88
